test: in vitro; type: cell-based, murine; conditions: mouse, Raw264.7 cell viability
Examples of compounds with documented viability at 24 h, 20 μM follow.
Express it in %; write the number only.

See these solved cases before continuing.
entrySmiles	viability at 24 h, 20 μM, %
CC[C@H](C)[C@H](NC(=O)[C@H](CC(=O)O)NC(C)=O)C(=O)N[C@@H](Cc1ccc(O)cc1)C(=O)N[C@@H](CCCNC(=N)N)C(=O)N[C@H](C(=O)N1CCC[C@H]1C(=O)N[C@@H](CO)C(N)=O)C(C)C	81.7
CC(=O)N[C@@H](CC(=O)O)C(=O)N[C@@H](CC(C)C)C(=O)N[C@@H](C)C(=O)N[C@@H](CCCNC(=N)N)C(=O)N[C@H](C(=O)N[C@@H](CCCNC(=N)N)C(=O)N[C@@H](CO)C(N)=O)C(C)C	97.6

[Q] Which viability at 24 h, 20 μM value belongs to CC(=O)N[C@@H](CC(C)C)C(=O)N[C@@H](CC(C)C)C(=O)N[C@@H](Cc1ccc(O)cc1)C(=O)N[C@@H](CCCNC(=N)N)C(=O)N[C@H](C(=O)N[C@@H](CCCNC(=N)N)C(=O)N[C@@H](CO)C(N)=O)C(C)C ?
[A] 57.6
